biological target: hERG potassium channel (Homo sapiens); experiment: hERG whole cell patch clamp, tail current inhibition in HEK-293 cells; settings: tail current at −40 mV, room temperature

{"compound": "COc1cc(-n2cnc3cc(-c4ccc(Cl)cc4)sc3c2=O)ccc1OCCN1CC[C@H](O)C1 [Comparison Example 1]", "unit of measurement": "µM", "IC50": 2}

---

molecular target: hERG potassium channel (Homo sapiens, UniProt Q12809); construct: expressed in transfected cells; host or cells: HEK-293 cells, BacMam viral expression system; test: hERG whole cell patch clamp, tail current inhibition in HEK-293 cells; assay type: cell-based; details: human, pH 7.4, 3 μM, tail current at −40 mV, room temperature, read-out: hERG Inhibition, % inhib. @ 3 μM
Sequence (Q12809 whole entry): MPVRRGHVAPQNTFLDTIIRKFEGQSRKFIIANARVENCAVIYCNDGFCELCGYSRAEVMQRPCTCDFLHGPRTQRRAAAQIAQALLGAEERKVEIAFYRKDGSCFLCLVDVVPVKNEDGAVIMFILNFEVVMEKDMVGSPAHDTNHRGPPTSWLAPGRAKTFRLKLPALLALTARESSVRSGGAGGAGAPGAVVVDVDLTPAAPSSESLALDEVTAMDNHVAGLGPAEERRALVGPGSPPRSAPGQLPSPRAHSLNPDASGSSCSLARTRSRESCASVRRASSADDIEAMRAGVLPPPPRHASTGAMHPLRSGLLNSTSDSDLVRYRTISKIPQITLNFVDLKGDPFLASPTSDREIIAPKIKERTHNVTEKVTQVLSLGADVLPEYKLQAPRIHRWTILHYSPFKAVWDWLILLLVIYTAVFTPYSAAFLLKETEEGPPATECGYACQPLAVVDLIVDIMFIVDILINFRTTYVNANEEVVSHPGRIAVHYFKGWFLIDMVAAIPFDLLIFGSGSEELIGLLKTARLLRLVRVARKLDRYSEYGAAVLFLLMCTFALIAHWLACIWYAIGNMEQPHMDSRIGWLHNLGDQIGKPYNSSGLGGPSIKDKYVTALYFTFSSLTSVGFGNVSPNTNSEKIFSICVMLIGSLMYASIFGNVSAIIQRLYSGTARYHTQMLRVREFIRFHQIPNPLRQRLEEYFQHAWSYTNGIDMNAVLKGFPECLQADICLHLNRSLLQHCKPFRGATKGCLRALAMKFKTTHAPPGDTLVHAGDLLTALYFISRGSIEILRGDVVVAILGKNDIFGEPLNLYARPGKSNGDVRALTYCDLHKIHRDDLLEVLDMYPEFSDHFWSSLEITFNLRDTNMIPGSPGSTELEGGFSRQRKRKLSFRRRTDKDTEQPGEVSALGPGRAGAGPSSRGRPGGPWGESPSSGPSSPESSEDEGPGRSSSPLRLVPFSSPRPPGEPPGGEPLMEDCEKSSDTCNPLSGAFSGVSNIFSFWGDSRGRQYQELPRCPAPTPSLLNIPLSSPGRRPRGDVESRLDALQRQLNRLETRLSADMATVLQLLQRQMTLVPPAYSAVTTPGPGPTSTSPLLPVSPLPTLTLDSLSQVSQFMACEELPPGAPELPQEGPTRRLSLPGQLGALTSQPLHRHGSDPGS
Measured inhibition at 3 µM by item

{"compound string": "COc1cc(-n2cnc3cc(-c4ccc(Cl)cc4)sc3c2=O)ccc1OCCN1CC[C@@H](O)C1", "system tested": "hERG potassium channel (Homo sapiens, UniProt Q12809)", "inhibition at 3 µM [%]": 90}
{"compound string": "COc1cc(-n2cnc3cc(-c4ccc(Cl)cc4)sc3c2=O)ccc1OCCCN1CC[C@@H](O)C1", "system tested": "hERG potassium channel (Homo sapiens, UniProt Q12809)", "inhibition at 3 µM [%]": 84}
{"compound string": "COc1cc(-n2cnc3cc(-c4ccc(Cl)cc4)sc3c2=O)ccc1OCCN1CC[C@H](O)C1", "system tested": "hERG potassium channel (Homo sapiens, UniProt Q12809)", "inhibition at 3 µM [%]": 62}
